target: EPHB1 (UniProt P54762); experiment: phosphorylation enrichment, bacterial display (enrichment ratio); higher = better substrate or ligand; peptides without Tyr show the background
Sequence (P54762 whole entry, looked up): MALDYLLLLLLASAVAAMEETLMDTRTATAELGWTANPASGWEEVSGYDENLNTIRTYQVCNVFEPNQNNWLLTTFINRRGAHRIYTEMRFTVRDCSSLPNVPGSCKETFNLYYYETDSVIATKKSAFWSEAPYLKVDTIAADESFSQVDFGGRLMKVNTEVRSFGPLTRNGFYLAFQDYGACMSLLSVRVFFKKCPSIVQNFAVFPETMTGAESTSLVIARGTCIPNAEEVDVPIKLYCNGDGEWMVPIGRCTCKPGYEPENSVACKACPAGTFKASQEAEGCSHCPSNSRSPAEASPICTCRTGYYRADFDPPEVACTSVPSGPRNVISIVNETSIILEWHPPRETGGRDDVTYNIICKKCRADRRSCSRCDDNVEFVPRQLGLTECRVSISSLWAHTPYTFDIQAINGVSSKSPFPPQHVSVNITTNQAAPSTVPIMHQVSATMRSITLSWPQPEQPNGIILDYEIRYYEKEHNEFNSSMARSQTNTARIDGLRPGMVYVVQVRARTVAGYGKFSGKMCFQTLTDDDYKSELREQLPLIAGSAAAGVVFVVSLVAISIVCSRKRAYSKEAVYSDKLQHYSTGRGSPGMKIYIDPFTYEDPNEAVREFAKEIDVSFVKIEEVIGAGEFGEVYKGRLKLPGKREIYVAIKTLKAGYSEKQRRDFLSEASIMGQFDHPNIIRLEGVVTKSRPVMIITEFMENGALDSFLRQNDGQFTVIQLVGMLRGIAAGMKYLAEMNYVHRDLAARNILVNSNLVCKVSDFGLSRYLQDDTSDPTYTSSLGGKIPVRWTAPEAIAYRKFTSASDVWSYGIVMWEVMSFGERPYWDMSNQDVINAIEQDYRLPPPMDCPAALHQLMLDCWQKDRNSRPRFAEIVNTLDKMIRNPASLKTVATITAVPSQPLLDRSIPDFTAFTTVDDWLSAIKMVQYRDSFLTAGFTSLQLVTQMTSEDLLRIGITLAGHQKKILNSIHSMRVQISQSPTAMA
measured-parameter: phosphorylation enrichment

Answered examples (3):
## Input Quick one: give measured phosphorylation enrichment for AFHGEYIPTVF [RAC2_Y32_P29H]
## Output 0.554

## Input Quickly give me recorded phosphorylation enrichment for SDYSRYARTSI [TERT_Y949_S948R]
## Output 0.434

## Input Kindly indicate its recorded phosphorylation enrichment. Item: SNSAAYSGSVA [PDLIM5_Y382_T381A]
## Output 0.398

Continuing:
## Input Respond only with phosphorylation enrichment recorded for VVLEDYLDIKN [CLCNKB_Y138]
## Output 0.499

## Input Specify phosphorylation enrichment for CTTIHYMYMCN [TP53_Y234_N235M] and stop.
## Output 0.62

## Input Report measured phosphorylation enrichment; entry is VGSEDYGRDLT [SPTAN1_Y1792]
## Output 0.626

## Input Report measured phosphorylation enrichment; entry is GVKLTYGDAQS [SLC28A1_Y404_N409S]
## Output 0.472

====

target: SHP2-C SH2; assay: SH2 binding enrichment of the phosphorylated peptide, bacterial display (enrichment ratio); higher = better substrate or ligand; peptides without Tyr show the background
measured-parameter: SH2 binding enrichment
Would you mind answering with just the numeric figure?

Use the examples below as a reference point.
## Input Output SH2 binding enrichment of KWLEQYTQAIE [LSP1_Y234_Q229K]
## Output 0.806

## Input Give the reported value of SH2 binding enrichment for this record: EEEPVYEAEPE [HCLS1_Y360]
## Output 0.716

## Input Read the entry EEQKKYFNAVK [SCN5A_Y1494_M1498V_YF] and write its reported SH2 binding enrichment.
## Output 0.604

## Input Please look at this sequence and report its SH2 binding enrichment: LRFDVYGGENE [STOX1_Y610_E608D_YF]
## Output 0.798

## Input Note down SH2 binding enrichment recorded for AKNKDYMSFIR [GNE_Y197_I200F]
## Output 1.23

***
## Input Give recorded SH2 binding enrichment. TLKDVYDDGKF [RPS6KA3_Y483_YF]
## Output 0.566

## Input Entry PLFRVYGLESL [INSR_Y94_L89P] needs its SH2 binding enrichment filled in; supply it.
## Output 0.663

## Input Supply measured SH2 binding enrichment of RHTRSYDYTEG [FGF7_Y56_M59T] in your reply.
## Output 0.841

## Input Supply SH2 binding enrichment value. Item: LGSNTYPFLLM [SAG_Y120_T125M]
## Output 0.435

## Input For the sequence TFTVSYLPDMS [FLNC_Y1602_YF] , report SH2 binding enrichment.
## Output 0.799

====

target: Grb2 SH2 (UniProt P62993); test: SH2 binding enrichment of the phosphorylated peptide, bacterial display (enrichment ratio); higher = better substrate or ligand; peptides without Tyr show the background
Sequence (P62993 whole entry, looked up): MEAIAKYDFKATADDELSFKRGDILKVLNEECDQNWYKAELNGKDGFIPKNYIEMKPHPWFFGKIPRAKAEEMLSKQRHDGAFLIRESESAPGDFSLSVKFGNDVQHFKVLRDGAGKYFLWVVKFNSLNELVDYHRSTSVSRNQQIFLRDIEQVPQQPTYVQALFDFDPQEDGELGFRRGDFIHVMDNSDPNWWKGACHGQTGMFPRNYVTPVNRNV
Documented SH2 binding enrichment across a set of sequences
Answer field: number only, no words.

## Input Look up and state reported SH2 binding enrichment for LTDRGYSFVTT [ACTA1_Y200_E197D]
## Output 0.988

## Input Provide one value: measured SH2 binding enrichment of REENGYNTYAS [FGF10_Y161_I156R]
## Output 0.673

## Input Quote SH2 binding enrichment reported for NVADHYRVFKP [ATP6V0D2_Y271_G272R_YF] please.
## Output 0.842

## Input Answer with reported SH2 binding enrichment of GPSTPYTKSKC [SMARCC2_Y324_R329C]
## Output 1.24

## Input Complete the entry with SH2 binding enrichment for MKKMHYVDPDH [ST3GAL5_Y99]
## Output 0.9

## Input Give the value of SH2 binding enrichment reported for the following: FFWDGYMPRQF [GSS_Y270_R267W_YF]
## Output 1.05

## Input Specify measured SH2 binding enrichment for GYKVRYATWSI [FGFR1_Y210] .
## Output 1.39

## Input Indicate its recorded SH2 binding enrichment; the sequence in question is EREYKYDAHNY [OAT_Y50_G51D]
## Output 0.781

Others:
## Input Quickly give me recorded SH2 binding enrichment for ECKLRYSRKEG [PTPN11_Y263_L262R]
## Output 0.746

## Input Return SH2 binding enrichment (reported value) for this sequence: SLIERYEPSET [PLCD1_Y258]
## Output 1

## Input Give the value of SH2 binding enrichment reported for the following: KLQKFYRQNPD [EHHADH_Y683_YF]
## Output 0.719

## Input Provide one value: measured SH2 binding enrichment of DQVEQYNKELE [LMNA_Y259_K260N]
## Output 0.882

## Input For the sequence CDDGKYVYVVT [RPS6KA3_Y488_Y483C] , give its measured SH2 binding enrichment value.
## Output 0.75

## Input Quick one: give measured SH2 binding enrichment for IGKAGYTDKMV [ENO1_Y236_V240M]
## Output 0.82

## Input For the sequence TFRPPYFHRNC [HGD_Y333_YF] , give its reported SH2 binding enrichment.
## Output 1.1

## Input Using known records, supply SH2 binding enrichment for ALERPYTSKHS [NANS_Y71]
## Output 0.866

====

target: Grb2 SH2 (UniProt P62993); assay: SH2 binding enrichment of the phosphorylated peptide, bacterial display (enrichment ratio); higher = better substrate or ligand; peptides without Tyr show the background
measured-parameter: SH2 binding enrichment
A bare number is all that is needed in reply.

## Input Provide only the value of recorded SH2 binding enrichment for ILLAGYLVMVI [SLC28A3_Y113]
## Output 0.729

## Input State its SH2 binding enrichment: LEISPYMLSGR [LRRK2_Y1718]
## Output 0.9

## Input Answer with reported SH2 binding enrichment of RAMPVYEKAEH [TP63_Y231_K232E]
## Output 1.07

## Input For the sequence CTTSHYNYMCN [TP53_Y234_I232S] , give its measured SH2 binding enrichment value.
## Output 1.01

## Input Please look at this sequence and report its SH2 binding enrichment: CTTIHYYYMCN [TP53_Y234_N235Y]
## Output 1.6

====

system: c-Abl (mouse); experiment: phosphorylation enrichment, bacterial display (enrichment ratio); higher = better substrate or ligand; peptides without Tyr show the background
# label = t if phosphorylation enrichment >= 0.7 else f

Record excerpt, results attached:
## Input Tell me whether phosphorylation enrichment is at least 0.7 here: LEGKEYRMSGE [KRT3_Y511_E509K]
## Output f

## Input Decide: is the reported value of phosphorylation enrichment for WFISFYPQVIM [CTNS_Y143_S139F] equal to or greater than 0.7?
## Output t

## Input Form field: phosphorylation enrichment at least 0.7? Entry: LGSNGCKKLLK [SEPSECS_Y334_Y334C]
## Output t

## Input Assess whether reported phosphorylation enrichment for SGSFRYGSSFE [SELE_Y390_C394F] sits at 0.7 or higher.
## Output f

## Input Given the entry TLKDVYDDGKF [RPS6KA3_Y483_YF] , answer whether its phosphorylation enrichment meets or surpasses 0.7.
## Output f

***
## Input Can CTTSHYNYMCN [TP53_Y234_I232S] be said to have phosphorylation enrichment at or above 0.7?
## Output f

## Input Could you verify whether the entry AALVQYYMEHH [PTPN11_Y80_E76A] shows phosphorylation enrichment of no less than 0.7?
## Output f

## Input Is phosphorylation enrichment at least 0.7? Consider ILGRTYFVNHE [NEDD4_Y627_YF]
## Output t

## Input Hi, just wondering whether NFADPYRQLPF [CTNND2_Y503_Q507P_YF] shows phosphorylation enrichment of 0.7 or higher.
## Output f

## Input Hi team, for AVISVYDLVAV [PSEN1_Y256] , is the recorded phosphorylation enrichment at or above 0.7?
## Output t

## Input Is it the case that LEGEEYRMSGE [KRT3_Y511] has phosphorylation enrichment reaching or exceeding 0.7?
## Output t

## Input Test whether the sequence MTKEQYIKMNQ [ARFGEF2_Y797_R802Q] records phosphorylation enrichment of 0.7 or higher.
## Output f

## Input Does the reported phosphorylation enrichment for ISHVAYRVLGK [TRRAP_Y892] fall at or above the 0.7 mark?
## Output f

====

system: c-Src; experiment: phosphorylation enrichment, bacterial display (enrichment ratio); higher = better substrate or ligand; peptides without Tyr show the background
Quick reference for phosphorylation enrichment among some sequences

Consider the worked cases shown below.
## Input Answer with the recorded phosphorylation enrichment for the sequence listed here: RNDRVYQPLRD [CD3D_Y149_Q147R]
## Output 1.55

## Input Recall and state the measured phosphorylation enrichment for HSHTRYERNIE [F2_Y434_R431H] .
## Output 0.795

## Input Give phosphorylation enrichment for the following sequence: QEMMEYRHQIQ [DES_Y324]
## Output 1.12

## Input Could you please provide reported phosphorylation enrichment for LPPREYVVVPS [CAPN1_Y494_G492R] ? Thanks!
## Output 0.48

## Input // Input: GIATGYLVLKE [DNMT3B_Y588] . Output its phosphorylation enrichment only.
## Output 0.4

Now for another entry.
## Input Consider the sequence EDKFMYFEFPQ [PTEN_Y240] . State its measured phosphorylation enrichment.
## Output 2.53
